Data origin, for the record: patent US20250215104A1

koff: recorded values
Target: T1, cynomolgus soluble urokinase plasminogen activator receptor (suPAR) (cynomolgus, UniProt Q9GK78 23-303, limits assumed)
T1 construct: Target antigen of the scFv off-rate screen; also called cynomolgus suPAR; cynomolgus uPAR
T1 sequence (Q9GK78 23-303 limits assumed): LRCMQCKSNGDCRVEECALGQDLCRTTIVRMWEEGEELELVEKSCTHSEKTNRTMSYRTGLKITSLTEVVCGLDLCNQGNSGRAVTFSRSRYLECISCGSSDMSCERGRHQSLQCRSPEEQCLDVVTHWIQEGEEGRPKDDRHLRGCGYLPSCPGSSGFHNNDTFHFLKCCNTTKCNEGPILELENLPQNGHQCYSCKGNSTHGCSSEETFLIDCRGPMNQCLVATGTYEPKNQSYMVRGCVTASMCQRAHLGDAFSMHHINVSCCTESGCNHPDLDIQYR
Test: BLI (Octet) off-rate screen of scFv clones
Enter your answer as a number in s⁻¹; do not include the unit.

suPAR_DB06_C05 (scFv, V domains shown) VH: QVQLVQSGAEVKKPGASVKVSCKASGGTFSSYAISWVRQAPGQGLEWMGVIDPSGGTTDYAQKFQGRVTMTRDTSTSTVYMELSSLRSEDTAVYYCARGYDVDWFVYWGQGTLVTVSS VL: DIQMTQSPSSLSASVGDRVTITCRTSQSISSFLNWYQQKPGKAPKLLIYDVSHLESGVPSRFSGSGSGTDFTLTISSLQPEDFATYYCQQYHSYPPTFGGGTKVEIK :: 0.0623

Turning now to a further record.
Quick check: koff of suPAR_DB06_F11 (scFv, V domains shown) VH: QVQLVQSGAEVKKPGASVKVSCKASGYTFTNYYMHWVRQAPGQGLEWMGWIDHENGSTIYAQKFQGRVTMTRDTSTSTVYMELSSLRSEDTAVYYCARGYDVDWFVYWGQGTLVTVSS VL: DIQMTQSPSSLSASVGDRVTITCSARSSVSYMYWYQQKPGKAPKLLIYRTSNLQSGVPSRFSGSGSGTDFTLTISSLQPEDFATYYCQQYHSYPPTFGGGTKVEIK ?
0.00059
